All figures here come from PubChem BioAssay (NCATS).

Measurement protocol: Quantitative High-Throughput drug screen in 47 multiple myeloma cell lines against the NCATS MIPE library collection: FR4_PLB cell viability assay (AID 1918924; note: nearly all actives have a fitted effect of over 35% in size)
Conditions used: FR4_PLB myeloma cells viability, CellTiter-Glo ATP, 48 h; series mostly up to 45.8 µM
Records with an inconclusive call do not appear. The source made the active and inactive calls. Calls come from the whole dose curve; as a rule, active = well fitted cell-killing curve with a large enough effect; inconclusive = small, poorly fitted or top-dose-only effect, or effect the other way; inactive = no such curve, though single readings can be large or run the other way.
In this exercise, the only acceptable responses are T for active, F for inactive

Study these solved cases before continuing.
Compound: COc1cc2ncnc(Nc3cccc(Cl)c3)c2cc1OC
Assigned class: T
--
Compound: COC(=O)Nc1nc2ccc(Sc3ccccc3)cc2[nH]1
Assigned class: T
--
Compound: Nc1nc(=S)c2[nH]cnc2[nH]1
Assigned class: T

// query What outcome does the record of this test show for `COc1ccc2c(c1)c(CC(=O)OCC(=O)O)c(C)n2C(=O)c1ccc(Cl)cc1` ?
// result F

// query Same question, `CC1(C)[C@H](C(=O)O)N2C(=O)C[C@H]2S1(=O)=O` this time
// result F

// query Same question, O=C(O)CSCC(=O)NC1CCSC1=O (centres undefined) this time
// result F

// query Same question, CN1CCCC(n2nc(Cc3ccc(Cl)cc3)c3ccccc3c2=O)CC1 (centres undefined) this time
// result T

// query Same question, `CCCN[C@H]1CCc2nc(N)sc2C1` this time
// result F

// query Same question, COc1c(N2CCNC(C)C2)c(F)cc2c(=O)c(C(=O)O)cn(C3CC3)c12 (centres undefined) this time
// result F

// query Same question, `O=c1cc(O)c(Cl)c[nH]1` this time
// result F

// query Same question, `O=P(O)(O)C(O)(Cc1cccnc1)P(=O)(O)O` this time
// result F

* * *

Measurement protocol: Drug repurposing screens with cells derived from glioblastoma tumor samples (AID 1345199); note: % is set by controls: 0 for no effect and ±100 for the full control effect; nearly all actives have a fitted effect of over 40% in size
Conditions used: GBM patient neurospheres viability, ATP luminescence, 48 h; at 45.9 µM (top of the series); tumour line D
Records with an inconclusive call do not appear. Activity calls are given as the source filed them. Calls follow the shape of the dose curve; as a rule, active = well fitted inhibition curve with a large enough effect; inconclusive = small, poorly fitted or top-dose-only effect; inactive = flat fitted curve, though single readings scatter.
Overview of reported activity, negative = cell killing across a group of molecules:

Solved cases below.
Molecule: Cc1ccnc2c1NC(=O)c1cccnc1N2C1CC1
activity, negative = cell killing: 4.3% (inactive)
//
Molecule: C#CCN[C@@H]1CCc2ccccc21
activity, negative = cell killing: -8% (inactive)
//
Molecule: S=P(N1CC1)(N1CC1)N1CC1
activity, negative = cell killing: -2.85% (inactive)

// query Value lookup for activity, negative = cell killing; key = CNC1CCCN(c2c(F)cc3c(=O)c(C(=O)O)cn(C4CC4)c3c2OC)C1 (centres undefined)
// result -8.95% (inactive)

* * *

Measurement protocol: Quantitative High-Throughput drug screen in 47 multiple myeloma cell lines against the NCATS MIPE library collection: OPM2_DSMZ cell viability assay (AID 1919872); note: nearly all actives have a fitted effect of over 30% in size
Conditions used: OPM2 myeloma viability, CellTiter-Glo ATP luminescence, 48 h; series mostly up to 45.8 µM
Results filed as inconclusive are left out. Calls of active or inactive are those of the source. Calls come from the whole dose curve; as a rule, active = well fitted cell-killing curve with a large enough effect; inconclusive = small, poorly fitted or top-dose-only effect, or effect the other way; inactive = no such curve, though single readings can be large or run the other way.
In this exercise, the only acceptable responses are active, inactive

Study these solved cases before continuing.
Molecule: CC(C)C1CCC(C(=O)N[C@H](Cc2ccccc2)C(=O)O)CC1 (some centres not stated)
Assigned class: active
--
Molecule: O=C(O)c1ccc(-n2nc(-c3ccccc3O)nc2-c2ccccc2O)cc1
Assigned class: inactive
--
Molecule: Cc1nnc(C(=O)NC(C)(C)c2nc(C(=O)NCc3ccc(F)cc3)c(O)c(=O)n2C)o1
Assigned class: inactive
--
Molecule: Oc1c(Cl)cc(Cl)c2cccnc12
Assigned class: active
--
Molecule: CN(C)c1ccc(C(=C2C=CC(=[N+](C)C)C=C2)c2ccc(N(C)C)cc2)cc1
Assigned class: active
--
Molecule: CC[C@H](NC(C)C)[C@H](O)c1ccc(O)c2[nH]c(=O)ccc12
Assigned class: inactive
--
Molecule: Nc1nc(N)nc(-c2cc(Cl)ccc2Cl)n1
Assigned class: inactive
--
Molecule: COc1ccc2c(c1)c(CC(=O)OCC(=O)O)c(C)n2C(=O)c1ccc(Cl)cc1
Assigned class: inactive
--
Molecule: NC(=O)N1c2ccccc2CC(=O)c2ccccc21
Assigned class: inactive
--
Molecule: OCc1ccc(-c2nn(Cc3ccccc3)c3ccccc23)o1
Assigned class: inactive

// query What outcome does the record of this test show for `Cc1onc(-c2ccccc2Cl)c1C(=O)N[C@@H]1C(=O)N2[C@@H]1SC(C)(C)[C@@H]2C(=O)O` ?
// result inactive

// query Same question, `NC(=O)c1cccc(N)c1` this time
// result inactive

// query Same question, `O=C(O)c1cc(=O)[nH]c(=O)[nH]1` this time
// result inactive

// query Same question, CCC(C)(C)c1ccc(CC(C)CN2C[C@@H](C)O[C@@H](C)C2)cc1 (some centres not stated) this time
// result inactive

* * *

Measurement protocol: qHTS for identification of novel therapeutic agents for treatment of microphthalmiaassociated transcription factor (MiT) renal cell carcinoma (RCC) (AID 1963991);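 note: curves scaled with 100% = DMSO viability and 0% = empty wells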
Conditions used: TFE3-RCC viability, CellTiter-Glo, 48 h; measured here: UOK145 Z-AUC; stronger effect = lower value
Results filed as inconclusive are left out.
Lab note: anything with z-score below 0.7 is marked met; values at 0.7 or higher are marked not met.

Molecule: COc1c(N2CCNC(C)C2)c(F)cc2c(=O)c(C(=O)O)cn(C3CC3)c12 (configuration not stated)
Assigned class: not met
--
Molecule: CC[C@H](NC(C)C)[C@H](O)c1ccc(O)c2[nH]c(=O)ccc12
Assigned class: not met
--
Molecule: CCCCS(=N)(=O)CCC(N)C(=O)O (configuration not stated)
Assigned class: met

// query Quick check: does `CCCc1cc(C(N)=S)ccn1` have z-score under 0.7?
// result not met

// query Same question, `Nc1[nH]c(=O)ncc1F` this time
// result met

* * *

Measurement protocol: Drug repurposing screens with cells derived from glioblastoma tumor samples (AID 1345199); note: % is set by controls: 0 for no effect and ±100 for the full control effect; nearly all actives have a fitted effect of over 40% in size
Conditions used: GBM patient neurospheres viability, ATP luminescence, 48 h; at 45.9 µM (top of the series); tumour line B
Results filed as inconclusive are left out.
Measure: activity, negative = cell killing (%)
Please state the figure in %; there is no need to write the unit.

Solved cases below.
Compound: O=P(O)(O)C(O)(Cc1cccnc1)P(=O)(O)O
Measure: activity, negative = cell killing
Quantitative readout: -9.54
//
Compound: CCCN[C@H]1CCc2nc(N)sc2C1
Measure: activity, negative = cell killing
Quantitative readout: 3.81
//
Compound: O=C(O)c1cccnc1
Measure: activity, negative = cell killing
Quantitative readout: -10
//
Compound: Nc1nc(N)nc(-c2cc(Cl)ccc2Cl)n1
Measure: activity, negative = cell killing
Quantitative readout: 1.99

// query Value lookup for activity, negative = cell killing; key = `O=S(=O)(O)CCS`
// result -4.82

// query Same question, CNC1CCCN(c2c(F)cc3c(=O)c(C(=O)O)cn(C4CC4)c3c2OC)C1 (configuration not stated) this time
// result 0.798

// query Same question, `CC(C)Cn1cnc2c(N)nc3ccccc3c21` this time
// result -23.5

* * *

Measurement protocol: Quantitative High-Throughput drug screen in 47 multiple myeloma cell lines against the NCATS MIPE library collection: EJM_DSMZ cell viability assay (AID 1918926; note: nearly all actives have a fitted effect of over 30% in size)
Conditions used: EJM myeloma cell viability, CellTiter-Glo ATP, 48 h; series mostly up to 45.8 µM
Records with an inconclusive call do not appear. The source made the active and inactive calls. Calls follow the shape of the dose curve; as a rule, active = well fitted cell-killing curve with a large enough effect; inconclusive = small, poorly fitted or top-dose-only effect, or effect the other way; inactive = no such curve, though single readings can be large or run the other way.
In this exercise, the only acceptable responses are yes = active, no = inactive

// query What outcome does the record of this test show for `CCOC(=O)c1ccc(OC(=O)CCCCCN=C(N)N)cc1` ?
// result no

// query Same question, `OCc1ccc(-c2nn(Cc3ccccc3)c3ccccc23)o1` this time
// result no

// query Same question, `CC(C)Cn1cnc2c(N)nc3ccccc3c21` this time
// result yes

// query Same question, CCOCC(O)COc1ccc(NC(=O)CC[S+](C)C)cc1 (centres undefined) this time
// result no

// query Same question, `COc1cccc(N(C)C(=S)Oc2ccc3c(c2)CCCC3)n1` this time
// result no

// query Same question, `CCn1cc(C(=O)O)c(=O)c2cc(F)c(N3CCN(C)CC3)cc21` this time
// result no

// query Same question, `N[C@@H](C(=O)N[C@@H]1C(=O)N2C(C(=O)O)=C(Cl)CS[C@H]12)c1ccccc1` this time
// result no

// query Same question, `COc1cc(NCc2ccc3nc(N)nc(N)c3c2C)cc(OC)c1OC` this time
// result yes

// query Same question, `Cc1cccc(Nc2ccncc2S(=O)(=O)NC(=O)NC(C)C)c1` this time
// result no

// query Same question, `CC1=CC(=O)c2ccccc2C1=O` this time
// result yes

// query Same question, `Nc1[nH]c(=O)ncc1F` this time
// result no

// query Same question, `CC(=O)Oc1ccccc1C(=O)Nc1ncc([N+](=O)[O-])s1` this time
// result yes

// query Same question, CCOc1cc(N)c(Cl)cc1C(=O)NCC1CN(Cc2ccc(F)cc2)CCO1 (centres undefined) this time
// result no

// query Same question, `Cc1cc(NS(=O)(=O)c2ccc(N)cc2)no1` this time
// result no

// query Same question, `N=C(N)c1ccc(OCCCCCOc2ccc(C(=N)N)cc2)cc1` this time
// result yes

// query Same question, `CC(C)(C)C(=O)OCOP(=O)(COCCn1cnc2c(N)ncnc21)OCOC(=O)C(C)(C)C` this time
// result yes

// query Same question, `CCN(CC)CCn1c(=O)c(Cc2ccc(OC)cc2)nc2ccccc21` this time
// result no

// query Same question, `CS(=O)(=O)c1ccc([C@@H](O)[C@@H](CO)NC(=O)C(Cl)Cl)cc1` this time
// result no

// query Same question, `Oc1c(Cl)cc(Cl)c2cccnc12` this time
// result yes

// query Same question, `S=P(N1CC1)(N1CC1)N1CC1` this time
// result no

// query Same question, `CCCc1nc(C)c2c(=O)[nH]c(-c3cc(S(=O)(=O)N4CCN(CC)CC4)ccc3OCC)nn12` this time
// result yes

// query Same question, `NC(=O)c1cccc(N)c1` this time
// result no

// query Same question, `COC(=O)Nc1nc2ccc(C(=O)c3ccccc3)cc2[nH]1` this time
// result yes

// query Same question, `CNS(=O)(=O)Cc1ccc2[nH]cc(CCN(C)C)c2c1` this time
// result no
